Molecular target: Saccharomyces cerevisiae α-glucosidase (Saccharomyces cerevisiae)
Sequence (P53341 whole entry): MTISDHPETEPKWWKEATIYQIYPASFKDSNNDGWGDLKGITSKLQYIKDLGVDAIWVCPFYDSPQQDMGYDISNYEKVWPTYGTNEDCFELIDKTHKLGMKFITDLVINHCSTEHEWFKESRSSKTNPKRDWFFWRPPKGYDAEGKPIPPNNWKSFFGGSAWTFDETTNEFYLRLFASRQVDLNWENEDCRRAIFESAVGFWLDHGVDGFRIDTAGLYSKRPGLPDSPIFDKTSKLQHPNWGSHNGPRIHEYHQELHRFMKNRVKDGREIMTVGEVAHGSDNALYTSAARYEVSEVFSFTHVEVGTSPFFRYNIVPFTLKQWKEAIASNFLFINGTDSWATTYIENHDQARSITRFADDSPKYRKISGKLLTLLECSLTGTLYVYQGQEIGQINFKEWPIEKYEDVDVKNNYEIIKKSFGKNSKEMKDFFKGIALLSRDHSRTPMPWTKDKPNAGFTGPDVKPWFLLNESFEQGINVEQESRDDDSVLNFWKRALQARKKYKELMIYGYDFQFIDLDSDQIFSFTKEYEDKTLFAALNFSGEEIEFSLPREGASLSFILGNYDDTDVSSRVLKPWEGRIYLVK
Assay: α-glucosidase inhibition assay
Assay type: biochemical
pIC50: −log10 of the molar value.
measuredAttribute: pIC50

I. O=c1c(O[C@@H]2O[C@H](CO)[C@H](O)[C@H](O)[C@H]2O)c(-c2ccc(O)c(O)c2)oc2cc(O)cc(O)c12 [hyperoside]
II. COc1c(-c2ccc(O)c(O)c2)oc2cc(O)cc(O)c2c1=O
## Task Select one. Lower pIC50: I or II Refer to your chosen item by its label in the answer.
## Result I
(I: 2.97, II: 3.36)
